# Tested on: Monkey Kidney Cells (CV-1)
# EXPERIMENTAL_PROTOCOL: Cytotoxicity to monkey kidney cells (CV-1) determined by Dr. R. G. Hughes, Jr.
# MEASUREMENT_PARAMETERS: 100 μg/disk; 8 or less essentially indicates noncytotoxicity
Entries annotated with measured cytotoxicity, zone diameter
Please give a number only; it is taken to be in mm.

Nc1ncc(C2c3nc(N)[nH]c3CC(CNC(=O)c3cc(Br)c(Br)[nH]3)C2CNC(=O)c2cc(Br)c(Br)[nH]2)[nH]1 (stereo not drawn) [Compound 6a, Dibromoageliferin Acetate]	10
Nc1ncc(C2c3nc(N)[nH]c3CC(CNC(=O)c3cc(Br)c[nH]3)C2CNC(=O)c2cc(Br)c[nH]2)[nH]1 (stereo not drawn) [Compound 4a, Ageliferin Acetate]	8

Consider the additional compound presented here.
Input: I have this compound here, Nc1ncc([C@@H]2[C@@H](CNC(=O)c3cc(Br)c(Br)[nH]3)[C@H](CNC(=O)c3cc(Br)c(Br)[nH]3)[C@H]2c2cnc(N)[nH]2)[nH]1 (relative stereo) [Compound 3a, Dibromosceptrin Acetate] , and I need its recorded cytotoxicity, zone diameter.
Output: 7
